Where do these numbers come from? They come from ChEMBL document CHEMBL1146026.

# Test Method Notes: Mean residence time in iv or po dosed rat
# Format: ADME, organism-based
# Settings: in vivo, read-out: Vdss
Property Name: Vd (L/kg)

> print(dat)
                           molecular.string  property.name  unit.of.measure  quantitative.readout
1  CCOC(=O)N[C@@H](CCCCN)C(=O)c1noc(Cc2ccc(OCCc3ccccc3)cc2)n1             Vd             L/kg                     7

* * *

# Target Entity: Tryptase (Rattus norvegicus, UniProt P27435)
# Sequence (P27435 whole entry): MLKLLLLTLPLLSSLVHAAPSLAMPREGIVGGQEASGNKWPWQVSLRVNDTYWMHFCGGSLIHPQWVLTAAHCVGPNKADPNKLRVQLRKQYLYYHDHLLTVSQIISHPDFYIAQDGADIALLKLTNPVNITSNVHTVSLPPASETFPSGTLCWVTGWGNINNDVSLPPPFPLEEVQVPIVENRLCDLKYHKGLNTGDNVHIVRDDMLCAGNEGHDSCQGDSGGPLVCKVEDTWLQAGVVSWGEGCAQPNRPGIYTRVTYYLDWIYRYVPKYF
Property Name: Ki (nM)

> print(dat)
                           molecular.string  quantitative.readout
1  CCOC(=O)N[C@@H](CCCCN)C(=O)c1noc(Cc2ccc(OCCc3ccccc3)cc2)n1                   5.5

* * *

# Test Method Notes: Clearance in iv or po dosed rat
# Assay type: ADME, organism-based
# Settings: in vivo
Property Name: clearance (L/h/kg)

> print(dat)
                           molecular.string  quantitative.readout
1  CCOC(=O)N[C@@H](CCCCN)C(=O)c1noc(Cc2ccc(OCCc3ccccc3)cc2)n1                  5.58

* * *

# Target Entity: UniProt Q02844
# Sequence (Q02844 whole entry): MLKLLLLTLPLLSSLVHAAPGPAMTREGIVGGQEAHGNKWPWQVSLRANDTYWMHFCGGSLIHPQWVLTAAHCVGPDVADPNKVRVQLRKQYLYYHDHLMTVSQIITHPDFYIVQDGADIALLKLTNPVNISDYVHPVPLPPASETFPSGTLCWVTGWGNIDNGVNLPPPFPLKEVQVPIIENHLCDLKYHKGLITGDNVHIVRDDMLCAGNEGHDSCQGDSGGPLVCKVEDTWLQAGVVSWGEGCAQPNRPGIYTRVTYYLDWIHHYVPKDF
Property Name: Ki (µM)

> print(dat)
                           molecular.string  quantitative.readout
1  CCOC(=O)N[C@@H](CCCCN)C(=O)c1noc(Cc2ccc(OCCc3ccccc3)cc2)n1                0.0435

* * *

# Test Method Notes: Volume of distribution in iv or po dosed rat
# Type: ADME, organism-based
# Settings: in vivo, read-out: Vc
Property Name: Vd (L/kg)

> print(dat)
                           molecular.string  property.name  unit.of.measure  quantitative.readout
1  CCOC(=O)N[C@@H](CCCCN)C(=O)c1noc(Cc2ccc(OCCc3ccccc3)cc2)n1             Vd             L/kg                  0.91

* * *

# Target Entity: Trypsin (Homo sapiens, UniProt P07477+P07478+P35030)
# Test Method Notes: Binding affinity to trypsin
# Type: protein assay
Property Name: Ki app

> print(dat)
                            molecular.string    result
 1  NCCCC[C@H](NC(=O)OCc1ccccc1)C(=O)c1noc(Cc2cccc(OCCc3ccccc3)c2)n1  0.082 µM
 2  NCCCC[C@H](NC(=O)OCc1ccccc1)C(=O)c1noc(Cc2ccc(OCCC3CCCCC3)cc2)n1      1 µM
 3  NCCCC[C@H](NC(=O)OCc1ccccc1)C(=O)c1noc(Cc2cccc(OCCCc3ccccc3)c2)n1  0.092 µM
 4  NCCCC[C@H](NC(=O)OCc1ccccc1)C(=O)c1noc(Cc2ccc(OCCc3ccc(Cl)c(Cl)c3)cc2)n1   0.28 µM
 5  NCCCC[C@H](NC(=O)OCc1ccccc1)C(=O)c1noc(Cc2ccc(OCCc3ccc(F)cc3)cc2)n1   0.11 µM
 6  NCCCC[C@H](NC(=O)OCc1ccccc1)C(=O)c1noc(Cc2ccc(OCCc3ccc(Cl)cc3)cc2)n1   0.27 µM
 7  NCCCC[C@H](NC(=O)OCc1ccccc1)C(=O)c1noc(Cc2ccc(OCCc3cccc(Cl)c3)cc2)n1   0.19 µM
 8  NCCCC[C@H](NC(=O)OCc1ccccc1)C(=O)c1noc(Cc2ccc(OCCc3ccc(Cl)cc3Cl)cc2)n1   0.41 µM
 9  COc1ccc(CCOc2ccc(Cc3nc(C(=O)[C@H](CCCCN)NC(=O)OCc4ccccc4)no3)cc2)cc1OC  0.011 µM
10  COc1cccc(CCOc2ccc(Cc3nc(C(=O)[C@H](CCCCN)NC(=O)OCc4ccccc4)no3)cc2)c1  0.059 µM
11  NCCCC[C@H](NC(=O)OCc1ccccc1)C(=O)c1noc(Cc2ccc(OCCc3ccc4ccccc4c3)cc2)n1   0.14 µM
12  NCCC[C@H](NC(=O)OCc1ccccc1)C(=O)c1noc(Cc2ccccc2)n1  0.068 µM
13  NCCCC[C@H](NC(=O)OCc1ccccc1)C(=O)c1noc(Cc2ccc(OCc3ccccc3)cc2)n1  0.024 µM
14  NCCCC[C@H](NC(=O)OCc1ccccc1)C(=O)c1noc(Cc2ccc(OCCc3ccccc3)cc2)n1  0.035 µM
15  COc1ccc(CCOc2ccc(Cc3nc(C(=O)[C@H](CCCCN)NC(=O)OCc4ccccc4)no3)cc2)cc1  0.034 µM
16  NCCCC[C@H](NC(=O)OCc1ccccc1)C(=O)c1noc(Cc2ccc(OCCc3cccc4ccccc34)cc2)n1  0.095 µM
17  NCCCC[C@H](NC(=O)OCc1ccccc1)C(=O)c1noc(Cc2ccc(OCCCc3ccccc3)cc2)n1  0.041 µM

* * *

We begin with a simple list: items and their reported pKi.
# Target Entity: Tryptase beta-1 (Homo sapiens)
# Test Method Notes: Binding affinity to human tryptase beta2
pKi: −log10 of the molar value.
Property Name: pKi

> print(dat)
                           molecular.string  quantitative.readout
1  NCCCC[C@H](NC(=O)OCc1ccccc1)C(=O)c1noc(Cc2ccc(OCCc3ccc(Cl)c(Cl)c3)cc2)n1                  8.00
2  COc1ccc(CCOc2ccc(Cc3nc(C(=O)[C@H](CCCCN)NC(=O)OCc4ccccc4)no3)cc2)cc1                  7.72
3  NCCCC[C@H](NC(=O)OCc1ccccc1)C(=O)c1noc(Cc2cccc(OCCc3ccccc3)c2)n1                  6.44
4  NCCCC[C@H](NC(=O)OCc1ccccc1)C(=O)c1noc(Cc2ccc(OCCC3CCCCC3)cc2)n1                  5.96
5  NCCCC[C@H](NC(=O)OCc1ccccc1)C(=O)c1noc(Cc2ccc(OCc3ccccc3)cc2)n1                  6.74
6  NCCCC[C@H](NC(=O)OCc1ccccc1)C(=O)c1noc(Cc2ccc(OCCc3ccc4ccccc4c3)cc2)n1                  7.57
7  NCCCC[C@H](NC(=O)OCc1ccccc1)C(=O)c1noc(Cc2cccc(OCCCc3ccccc3)c2)n1                  6.92
8  NCCCC[C@H](NC(=O)OCc1ccccc1)C(=O)c1noc(Cc2ccc(OCCc3ccc(Cl)cc3)cc2)n1                  7.85

* * *

# Target Entity: Tryptase beta-1 (Homo sapiens, UniProt Q15661)
# Sequence (Q15661 whole entry): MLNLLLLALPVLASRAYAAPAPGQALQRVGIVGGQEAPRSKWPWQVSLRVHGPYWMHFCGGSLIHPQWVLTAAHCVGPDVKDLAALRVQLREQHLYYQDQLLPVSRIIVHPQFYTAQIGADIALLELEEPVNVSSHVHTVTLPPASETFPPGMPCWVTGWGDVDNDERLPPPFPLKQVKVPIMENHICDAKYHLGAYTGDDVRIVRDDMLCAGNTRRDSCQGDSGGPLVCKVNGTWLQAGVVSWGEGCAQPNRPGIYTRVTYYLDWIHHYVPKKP
# Test Method Notes: Binding affinity to human tryptase beta2
// assign True if Ki falls strictly below 40 nM, else False (ties count as False)

> print(dat)
                           molecular.string  class.label
1  NCCC[C@H](NC(=O)OCc1ccccc1)C(=O)c1noc(Cc2ccccc2)n1        False
2  NCCCC[C@H](NC(=O)OCc1ccccc1)C(=O)c1noc(Cc2ccc(OCCCc3ccccc3)cc2)n1         True
3  NCCCC[C@H](NC(=O)OCc1ccccc1)C(=O)c1noc(Cc2ccc(OCCc3cccc(Cl)c3)cc2)n1         True
4  NCCCC[C@H](NC(=O)OCc1ccccc1)C(=O)c1noc(Cc2ccc(OCCc3ccc(Cl)cc3Cl)cc2)n1        False
5  COc1ccc(CCOc2ccc(Cc3nc(C(=O)[C@H](CCCCN)NC(=O)OCc4ccccc4)no3)cc2)cc1OC         True
6  NCCCC[C@H](NC(=O)OCc1ccccc1)C(=O)c1noc(Cc2ccc(OCCc3cccc4ccccc34)cc2)n1        False
7  NCCCC[C@H](NC(=O)OCc1ccccc1)C(=O)c1noc(Cc2ccc(OCCc3ccc(F)cc3)cc2)n1         True
